# Tested on: THP-1 cells
# Experiment description: Cytotoxicity assay (Cell-Titer GLO, ATP levels, 72 h)
# Format: cell-based, human
# Particulars: 72 h treatment, 4–500 µM
Record form. Attribute: CC50. Fill in for each entry.
All answers are understood in µM, so give the number only.

Problem: Given the entry Oc1ccc(CCNCc2ccc(O)c(O)c2)cc1 , report its measured CC50.
Solution: 148

Problem: Given the entry CN(CCc1ccc(O)cc1)Cc1ccc(O)c(O)c1 , report its measured CC50.
Solution: 227
